test system: voltage-gated Na+ (NaV) channel; construct: native channels of pituitary GH3 cells, isoform not resolved; assay: whole-cell patch clamp of native late INa in GH3 cells; format: cell-based
metricName: pIC50
Schema: pIC50 number; meaning minus log10 of the concentration expressed in molar units.

Lookup: Request - read-out pIC50 | tested on voltage-gated Na+ (NaV) channel | compound CCC1=C[C@@H]2[C@H](C1)C[C@]2(CN)CC(=O)O
Found: 5.14
